Reference source for all entries: patent US20220402985A1

Some binders, each annotated with its measured CM % Agonism AVG.
assay target: ErbB4 on neonatal rat cardiomyocytes (rat) (UniProt Q62956)
Sequence (Q62956 26-1308): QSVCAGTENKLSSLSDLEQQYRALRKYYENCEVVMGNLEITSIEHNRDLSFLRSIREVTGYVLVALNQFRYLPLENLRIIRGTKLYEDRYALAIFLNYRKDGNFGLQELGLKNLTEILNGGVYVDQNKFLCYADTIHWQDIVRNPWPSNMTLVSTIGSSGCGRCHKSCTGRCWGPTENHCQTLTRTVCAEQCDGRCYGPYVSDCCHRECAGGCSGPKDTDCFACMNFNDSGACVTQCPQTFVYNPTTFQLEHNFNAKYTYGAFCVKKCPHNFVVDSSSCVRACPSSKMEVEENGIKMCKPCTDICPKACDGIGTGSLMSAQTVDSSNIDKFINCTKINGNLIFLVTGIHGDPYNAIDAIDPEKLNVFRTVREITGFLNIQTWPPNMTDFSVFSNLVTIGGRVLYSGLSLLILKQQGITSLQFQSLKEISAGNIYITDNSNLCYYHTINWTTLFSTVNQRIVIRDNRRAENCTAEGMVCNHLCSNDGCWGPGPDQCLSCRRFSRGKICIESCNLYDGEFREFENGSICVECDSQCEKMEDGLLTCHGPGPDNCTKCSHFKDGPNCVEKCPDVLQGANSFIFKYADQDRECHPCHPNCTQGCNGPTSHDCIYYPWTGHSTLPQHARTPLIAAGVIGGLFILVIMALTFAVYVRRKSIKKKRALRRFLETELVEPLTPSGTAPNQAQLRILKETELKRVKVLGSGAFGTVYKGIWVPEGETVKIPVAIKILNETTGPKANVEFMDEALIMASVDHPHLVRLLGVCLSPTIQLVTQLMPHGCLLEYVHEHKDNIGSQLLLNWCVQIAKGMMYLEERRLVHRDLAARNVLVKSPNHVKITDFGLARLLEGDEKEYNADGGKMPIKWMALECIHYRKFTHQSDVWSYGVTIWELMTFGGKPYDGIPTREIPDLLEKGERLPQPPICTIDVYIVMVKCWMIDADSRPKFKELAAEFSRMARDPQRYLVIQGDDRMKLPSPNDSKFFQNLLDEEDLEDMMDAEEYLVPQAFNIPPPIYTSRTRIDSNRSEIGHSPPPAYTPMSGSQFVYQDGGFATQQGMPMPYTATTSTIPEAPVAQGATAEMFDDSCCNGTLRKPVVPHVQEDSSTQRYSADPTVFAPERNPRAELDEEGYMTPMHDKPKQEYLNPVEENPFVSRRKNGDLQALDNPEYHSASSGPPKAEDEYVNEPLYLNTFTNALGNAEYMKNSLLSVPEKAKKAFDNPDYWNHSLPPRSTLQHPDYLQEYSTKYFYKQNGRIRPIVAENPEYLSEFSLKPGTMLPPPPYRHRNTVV
protocol notes: cell-based or functional assay

binder	CM % Agonism AVG
huNRG1(S177-Q237)(NRGE1J)::GG::huFcSEFL2 (Pb) (Fc fusion) SHLVKCGENDKSFCVNGGECYMVEGSSIPSRYLCKCPNEFTGDRCQDDFMASFYKAEELYQGGDKTHTCPPCPAPELLGGPSVFLFPPKPKDTLMISRTPEVTCVVVDVSHEDPEVKFNWYVDGVEVHNAKTKPCEEQYGSTYRCVSVLTVLHQDWLNGKEYKCKVSNKALPAPIEKTISKAKGQPREPQVYTLPPSREEMTKNQVSLTCLVKGFYPSDIAVEWESNGQPENNYKTTPPVLDSDGSFFLYSKLTVDKSRWQQGNVFSCSVMHEALHNHYTQKSLSLSPGK	68%
huNRG1(S177-F229)(NRGE1C) (D48T_F49Q_M50I) 6xHis (ligand) SHLVKCGEKHKSFCVNGGECFMIEGPSNPSRYLCKCPNEFTGDRCQETQIASFGGGGEGGGGAGGGGHHHHHH	106%
huNRG1(S177-Q237)(3F2)::GG::huFcSEFL2 (Pb) (Fc fusion) SHLVKCGESHKSFCVNGGECFMIEGPSNPSRYLCKCPNEFTGDRCQDDFMASFYKAEELYQGGDKTHTCPPCPAPELLGGPSVFLFPPKPKDTLMISRTPEVTCVVVDVSHEDPEVKFNWYVDGVEVHNAKTKPCEEQYGSTYRCVSVLTVLHQDWLNGKEYKCKVSNKALPAPIEKTISKAKGQPREPQVYTLPPSREEMTKNQVSLTCLVKGFYPSDIAVEWESNGQPENNYKTTPPVLDSDGSFFLYSKLTVDKSRWQQGNVFSCSVMHEALHNHYTQKSLSLSPGK	70%
huNRG1(S177-F229)(NRGE1C) (E47S_D48T_F49R_M50V) 6xHis (ligand) SHLVKCGEKHKSFCVNGGECFMIEGPSNPSRYLCKCPNEFTGDRCQSTRVASFGGGGEGGGGAGGGGHHHHHH	87.5%
